# Experimental target: human skin chymase (Homo sapiens, UniProt P23946)
# Construct: using human skin chymase (Cortex Biochem); purchased Cortex Biochem
# Sequence (P23946 22-247): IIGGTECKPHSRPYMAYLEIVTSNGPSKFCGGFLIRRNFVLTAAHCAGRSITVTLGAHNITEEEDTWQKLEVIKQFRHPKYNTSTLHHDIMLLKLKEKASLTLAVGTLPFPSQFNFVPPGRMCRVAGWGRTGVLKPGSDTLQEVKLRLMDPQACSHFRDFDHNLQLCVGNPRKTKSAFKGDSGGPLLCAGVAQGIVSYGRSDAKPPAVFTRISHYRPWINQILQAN
# Test summary: Enzyme-catalyzed hydrolysis assay (chymase inhibition)
# Format: biochemical
# Condition info: 10 nM enzyme, 0.7 mM Suc-Ala-Ala-Pro-Phe-pNa, pH 8.0, 37° C., 30 minutes
Measure: IC50 (µM)

Solved cases below.
QUERY: Item CC(=O)Oc1ccccc1/C=C/NC(=O)C(c1csc2ccc(Cl)cc12)P(C)(=O)O (centres unmarked) [Cpd 148] with human skin chymase (Homo sapiens, UniProt P23946) - IC50?
RESULT: 0.23

QUERY: Give the reported IC50 for O=C(Nc1cc2ccccc2cc1CNCCCCCO)C(c1cccc2ccccc12)P(=O)(O)O (centres unmarked) [Cpd 133] (system: human skin chymase (Homo sapiens, UniProt P23946)).
RESULT: 8.08

QUERY: Query IC50 on human skin chymase (Homo sapiens, UniProt P23946) for COC(=O)c1cc2ccccc2cc1NC(=O)C(c1cccc2ccccc12)P(=O)(O)O (centres unmarked) [Cpd 75]
RESULT: 1.4

1 = O=C(NCc1ccccc1)OCc1cc2ccccc2cc1NC(=O)C(c1cccc2ccccc12)P(=O)(O)O (centres unmarked) [Cpd 72]
2 = Cn1cc(C(C(=O)Nc2ccc3ccccc3c2)P(=O)(O)O)c2ccc(Cl)cc21 (centres unmarked) [Cpd 52]
QUERY: Among 1 and 2 , whose measured IC50 is the smaller figure? Reply with the label of the item you choose.
RESULT: 2
(2: 0.48 µM, 1: 1.3 µM)

---

# Experimental target: human skin chymase (Homo sapiens, UniProt P23946)
# Construct: using human skin chymase (Cortex Biochem); purchased Cortex Biochem
# Test summary: Enzyme-catalyzed hydrolysis assay (chymase inhibition)
# Format: biochemical
# Condition info: 10 nM enzyme, 0.7 mM Suc-Ala-Ala-Pro-Phe-pNa, pH 8.0, 37° C., 30 minutes
Measure: IC50 (µM)

Would you please look over these solved cases?
QUERY: // IC50 lookup, key: COC(=O)COc1cc2ccccc2cc1NC(=O)C(c1cccc2ccccc12)P(=O)(O)O (stereo not shown)
RESULT: 6.6

QUERY: # query: IC50 of entry CN(CCc1ccccc1)Cc1cc2ccccc2cc1NC(=O)C(c1cccc2ccccc12)P(=O)(O)O (stereo not shown)
RESULT: 7

QUERY: Look up IC50 for this molecule: CP(=O)(O)C(C(=O)N/C=C/c1cccc([N+](=O)[O-])c1)c1csc2ccc(Cl)cc12 (stereo not shown)
RESULT: 0.0387

A = Cn1cc(C(C(=O)Nc2ccc3ccccc3c2)P(=O)(O)O)c2cc(F)ccc21 (stereo not shown)
B = CP(=O)(O)C(C(=O)Nc1ccc2ccccc2c1)c1c(C(=O)O)sc2ccccc12 (stereo not shown)
C = COc1cc(/C=C/NC(=O)C(c2csc3ccc(Cl)cc23)P(C)(=O)O)cc(OC)c1 (stereo not shown)
D = Cn1cc(C(C(=O)Nc2ccc3ccccc3c2)P(=O)(O)O)c2cc(-c3ccc(F)cc3)ccc21 (stereo not shown)
QUERY: Order the items by recorded IC50; the first position goes to the largest value. List each label, following the requested order.
RESULT: B, D, A, C
(B: 5.72 µM, D: 2.9 µM, A: 0.037 µM, C: 0.0059 µM)
